I'd appreciate it if you could supply melting point values for the items below.

QUERY: Retrieve melting point measured for COc1cc(-c2ccc(O)c(C34CC5CC(CC(C5)C3)C4)c2)cc(/C=C2\SC(N3CCOCC3)=NC2=O)c1O and print it.
RESULT: 310 to 312 °C

QUERY: Specify measured melting point for CC1(C)COc2ccc(-c3cncc(/C=C4\SC(N5CCOCC5)=NC4=O)c3)cc21 .
RESULT: 230 to 233 °C

QUERY: Item Cc1cc(O)c(C23CC4CC(CC(C4)C2)C3)cc1-c1cccc(/C=C2\SC(N3CCOCC3)=NC2=O)c1 : provide melting point
RESULT: 327 to 329 °C

QUERY: Answer with reported melting point of CSC1=NC(=O)/C(=C/c2cccc(-c3cc(F)c(O)c(C45CC6CC(CC(C6)C4)C5)c3)c2)S1
RESULT: 270 to 271 °C

QUERY: Check the records and state melting point for O=C1N=C(N2CCOCC2)S/C1=C\c1ccc(-c2ccnc(C34CC5CC(CC(C5)C3)C4)n2)cc1
RESULT: 283 to 285 °C

QUERY: Please report the measured melting point for O=C1N=C(NCCN2CCOCC2)S/C1=C\c1cccc(-c2cc(F)c(O)c(C34CC5CC(CC(C5)C3)C4)c2)c1
RESULT: 180 to 193 °C

QUERY: # return recorded melting point for entry CN1CCN(C2=NC(=O)/C(=C/c3cccc(-c4ccc(O)c(C56CC7CC(CC(C7)C5)C6)c4)c3)S2)CC1
RESULT: 291 to 294 °C

QUERY: Annotate the molecule CCN(CC)C1=NC(=O)/C(=C/c2cccc(-c3ccc(O)c(C45CC6CC(CC(C6)C4)C5)c3)c2)S1 with its measured melting point.
RESULT: 275 to 277 °C

QUERY: Return reported melting point. Input molecule: NC(=O)NNC1=NC(=O)/C(=C/c2cccc(-c3cc(F)c(O)c(C45CC6CC(CC(C6)C4)C5)c3)c2)S1
RESULT: 234 to 236 °C

QUERY: Specify melting point for O=C1N=C(N2CCOCC2)S/C1=C\c1ccc(OC(F)(F)F)c(-c2cc(F)c(O)c(C34CC5CC(CC(C5)C3)C4)c2)c1 and stop.
RESULT: 238 °C

QUERY: Please report the measured melting point for CN(C)CCN(Cc1ccccc1)C1=NC(=O)/C(=C/c2cccc(-c3cc(F)c(O)c(C45CC6CC(CC(C6)C4)C5)c3)c2)S1
RESULT: 242 to 246 °C

QUERY: Entry O=C1N=C(N2CCNCC2)S/C1=C\c1cccc(-c2cc(F)c(O)c(C34CC5CC(CC(C5)C3)C4)c2)c1 needs its melting point filled in; supply it.
RESULT: 230 to 233 °C

QUERY: Look up and report measured melting point for this entry: CN(C)c1ccc(/C=C2\SC(N3CCCC3)=NC2=O)cc1-c1cc(F)c(O)c(C23CC4CC(CC(C4)C2)C3)c1
RESULT: 294 to 298 °C

QUERY: Tell me its melting point given CCC(C)(C)c1cc(-c2cccc(CC3SC(N4CCOCC4)=NC3=O)c2)ccc1O (centres unmarked) as the entry.
RESULT: 74 to 77 °C
